Test system: P-gp
procedure-text: Bidirectional transport across Caco-2 cell monolayers
particulars: human, Caco-2, pH 7.4
measurement-name: efflux ratio at 120 min, 0.01 µM

[[record]]
smi = "C[C@H]1O[C@@H](O[C@H]2[C@@H](O)C[C@H](O[C@H]3[C@@H](O)C[C@H](O[C@H]4CC[C@@]5(C)[C@H](CC[C@@H]6[C@@H]5C[C@@H](O)[C@]5(C)[C@@H](C7=CC(=O)OC7)CC[C@]65O)C4)O[C@@H]3C)O[C@@H]2C)C[C@H](O)[C@@H]1O"
measurement_name = "efflux ratio at 120 min, 0.01 µM"
observed_result = 2.57


###

Test system: P-gp (MDR1)
procedure-text: Bidirectional transport across MDCK-MDR1 cell monolayers
Format: in vitro ADME, canine
particulars: dog, MDCK-MDR1, pH 7.4, with GG918 0.5 µM
measurement-name: Papp B→A at 120 min, 0.01 µM (×10⁻⁶ cm/s)

[[record]]
compound = "C[C@H]1O[C@@H](O[C@H]2[C@@H](O)C[C@H](O[C@H]3[C@@H](O)C[C@H](O[C@H]4CC[C@@]5(C)[C@H](CC[C@@H]6[C@@H]5C[C@@H](O)[C@]5(C)[C@@H](C7=CC(=O)OC7)CC[C@]65O)C4)O[C@@H]3C)O[C@@H]2C)C[C@H](O)[C@@H]1O [Digoxin, digoxin]"
system = "P-gp (MDR1)"
observed_result = 0.67


meta.source: paper PMC4891189
